biological target: SfurOBP11 (Sogatella furcifera, UniProt V5T6E3); experiment: biochemical; type: binding; conditions: ligand concentration 8, replicate 2
Sequence (V5T6E3 entry or part of it): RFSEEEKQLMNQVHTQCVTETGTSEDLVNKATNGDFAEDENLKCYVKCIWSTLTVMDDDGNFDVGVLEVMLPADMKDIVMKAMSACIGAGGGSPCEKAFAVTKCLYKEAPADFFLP
Let's look at some compounds and their measured Fluorescence intensity, fluorescence competitive binding assay, OBP11.
RESULT TYPE: Fluorescence intensity, fluorescence competitive binding assay, OBP11

- COMPOUND: "Cc1cc(C(C)(C)C)c(O)c(C(C)(C)C)c1"
  MEASURED: 19956
- COMPOUND: "CCCCCC(C)=O"
  MEASURED: 23156
- COMPOUND: "CCCCCCCCCCCCO"
  MEASURED: 21947
- COMPOUND: "O=C(c1ccccc1)c1ccccc1"
  MEASURED: 20308
- COMPOUND: "C=CC(C)(O)CCC=C(C)C (stereo not drawn)"
  MEASURED: 34190
- COMPOUND: "CCCCCCCCCCCCC=O"
  MEASURED: 24250
- COMPOUND: "CCCCCCCCC=O"
  MEASURED: 31482
- COMPOUND: "Cc1ccc(C(C)C)cc1"
  MEASURED: 27991
- COMPOUND: "c1ccc2ccccc2c1"
  MEASURED: 35048
- COMPOUND: "C[C@@H]1CC[C@H]2C(C)(C)[C@H]3C[C@@]12CC[C@@]3(C)O"
  MEASURED: 35488
- COMPOUND: "C=C/C(C)=C/C/C=C(\\C)CCC=C(C)C"
  MEASURED: 32522
- COMPOUND: "CCCCCCCCCCCCCCCCCC"
  MEASURED: 29971
